Biological target: Tyrosinase (Agaricus bisporus)
Sequence (O42713 whole entry): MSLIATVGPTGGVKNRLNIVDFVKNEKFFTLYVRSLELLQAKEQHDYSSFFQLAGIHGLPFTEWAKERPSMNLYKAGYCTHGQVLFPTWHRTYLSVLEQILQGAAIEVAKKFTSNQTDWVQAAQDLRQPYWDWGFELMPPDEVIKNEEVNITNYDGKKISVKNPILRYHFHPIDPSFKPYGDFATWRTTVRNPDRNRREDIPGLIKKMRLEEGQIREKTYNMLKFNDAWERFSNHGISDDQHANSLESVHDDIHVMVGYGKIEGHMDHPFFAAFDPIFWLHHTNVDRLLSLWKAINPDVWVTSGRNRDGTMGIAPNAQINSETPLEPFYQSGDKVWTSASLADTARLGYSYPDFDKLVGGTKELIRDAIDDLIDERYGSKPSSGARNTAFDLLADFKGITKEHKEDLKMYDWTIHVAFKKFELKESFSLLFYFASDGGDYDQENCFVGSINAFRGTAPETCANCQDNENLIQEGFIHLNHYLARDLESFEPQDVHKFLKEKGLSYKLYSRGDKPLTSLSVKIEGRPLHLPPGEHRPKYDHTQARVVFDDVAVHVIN
Test: Inhibition of mushroom tyrosinase at 400 uM
recorded metric: inhibition

Some compounds with known inhibition results, for comparison:
>  <compound>
COc1cc(O)c(C(=O)/C=C/c2cccc(O)c2O)c(OC)c1

>  <inhibition>
< 20%

$$$$
>  <compound>
COc1cc(O)c(C(=O)/C=C/c2cc(O)c(O)c(O)c2)c(OC)c1

>  <inhibition>
< 20%

$$$$

Could you now look at the following compound, please?
Noted for O=C(/C=C/c1ccc(O)c(O)c1)c1ccc(O)c(O)c1 : its inhibition reads < 20%

###

Biological target: Tyrosinase (Agaricus bisporus) (UniProt O42713)
Sequence (O42713 whole entry): as above
Assay: Inhibition of mushroom tyrosinase at 400 uM
recorded metric: inhibition

These recorded examples may help you get a feel for the data.
>  <compound>
O=C(/C=C/c1ccc(O)cc1O)c1c(O)cc(O)cc1O

>  <inhibition>
72%

$$$$
>  <compound>
COc1cc(O)c(C(=O)/C=C/c2ccc(O)c(O)c2)c(OC)c1

>  <inhibition>
< 20%

$$$$
>  <compound>
O=C(/C=C/c1ccccc1)c1c(O)cccc1O

>  <inhibition>
< 20%

$$$$

The molecule O=C(/C=C/c1ccccc1)c1ccc(O)cc1O showed inhibition equal to < 20%

# inhibition (molecule: O=C(/C=C/c1ccc(O)c(O)c1)c1c(O)cc(O)cc1O ) is < 20%

Memo: O=C(/C=C/c1ccc(O)c(O)c1)c1ccccc1O , reported inhibition: < 20%

###

What follows is a collection of IC50 values obtained with Tyrosinase (Agaricus bisporus).
Numeric answer only, unit µM assumed.

Consider the reported IC50 for these compounds:
>  <compound>
O=C(/C=C/c1ccc(O)cc1O)c1ccc(O)cc1O

>  <recorded metric>
IC50

>  <value observed>
5

$$$$
>  <compound>
COc1ccc(/C=C/C(=O)c2c(O)cc(O)cc2O)cc1OC

>  <recorded metric>
IC50

>  <value observed>
150

$$$$
>  <compound>
O=C(/C=C/c1cc(O)c(O)c(O)c1)c1c(O)cc(O)cc1O

>  <recorded metric>
IC50

>  <value observed>
200

$$$$

Shifting focus to the compound that follows.
Record O=C(/C=C/c1cccc(O)c1O)c1c(O)cc(O)cc1O has Tyrosinase (Agaricus bisporus) IC50 equal to 193

These entries and their values trace back to ChEMBL document CHEMBL1147034.
